pIC50: −log10 of the molar value.
The following molecules each carry a recorded pIC50 for ENPP3 (Homo sapiens, UniProt O14638).

>  <Molecule>
Cc1ccc(C(=O)Nc2ccc(OS(=O)(=O)c3ccc(OC(F)(F)F)cc3)cc2)cc1

>  <pIC50>
6.72

$$$$
>  <Molecule>
O=C(Nc1ccc(OS(=O)(=O)c2ccc(F)cc2)cc1)c1ccccc1

>  <pIC50>
5.53

$$$$
>  <Molecule>
CC1(C(=O)Nc2ccc(OS(C)(=O)=O)cc2)c2ccccc2-c2ccccc21

>  <pIC50>
6.80

$$$$
>  <Molecule>
Cc1ccc(C(=O)Nc2ccc(OS(=O)(=O)c3ccc(F)cc3)cc2)cc1

>  <pIC50>
6.43

$$$$
>  <Molecule>
O=C(Nc1ccc(OS(=O)(=O)c2ccc(I)cc2)cc1)c1ccccc1 [4r, 4-Benzamidophenyl 4-Iodobenzenesulfonate]

>  <pIC50>
6.28

$$$$
>  <Molecule>
Cc1ccc(C(=O)Nc2ccc(OS(=O)(=O)c3ccccc3F)cc2)cc1

>  <pIC50>
5.46

$$$$
>  <Molecule>
CC1(C(=O)Nc2ccc(OS(=O)(=O)c3ccc(F)cc3)cc2)c2ccccc2-c2ccccc21

>  <pIC50>
5.17

$$$$
>  <Molecule>
Cc1ccc(S(=O)(=O)Oc2ccc(NC(=O)C3(C)c4ccccc4-c4ccccc43)cc2)cc1

>  <pIC50>
6.42

$$$$
>  <Molecule>
O=C(Nc1ccc(OS(=O)(=O)Cc2ccccc2)cc1)c1ccccc1 [4n, 4-Benzamidophenyl Phenylmethanesulfonate]

>  <pIC50>
5.39

$$$$
>  <Molecule>
CCCc1ccc(S(=O)(=O)Oc2ccc(NC(=O)c3ccccc3)cc2)cc1

>  <pIC50>
5.67

$$$$
>  <Molecule>
Cc1ccc(C(=O)Nc2ccc(OS(=O)(=O)c3ccccc3)cc2)cc1

>  <pIC50>
4.53

$$$$
>  <Molecule>
Cc1ccc(C(=O)Nc2ccc(OS(=O)(=O)c3ccc(Cl)cc3)cc2)cc1

>  <pIC50>
6.09

$$$$
>  <Molecule>
CC1(C(=O)Nc2ccc(OS(=O)(=O)C(F)(F)F)cc2)c2ccccc2-c2ccccc21

>  <pIC50>
5.38

$$$$
>  <Molecule>
O=C(Nc1ccc(OS(=O)(=O)c2ccc(OC(F)(F)F)cc2)cc1)c1ccccc1

>  <pIC50>
6.82

$$$$
>  <Molecule>
Cc1ccc(C(=O)Nc2ccc(OS(=O)(=O)c3ccc(I)cc3)cc2)cc1

>  <pIC50>
5.37

$$$$

---

Target: ENPP1 (Homo sapiens)
Sequence (P22413 1-925): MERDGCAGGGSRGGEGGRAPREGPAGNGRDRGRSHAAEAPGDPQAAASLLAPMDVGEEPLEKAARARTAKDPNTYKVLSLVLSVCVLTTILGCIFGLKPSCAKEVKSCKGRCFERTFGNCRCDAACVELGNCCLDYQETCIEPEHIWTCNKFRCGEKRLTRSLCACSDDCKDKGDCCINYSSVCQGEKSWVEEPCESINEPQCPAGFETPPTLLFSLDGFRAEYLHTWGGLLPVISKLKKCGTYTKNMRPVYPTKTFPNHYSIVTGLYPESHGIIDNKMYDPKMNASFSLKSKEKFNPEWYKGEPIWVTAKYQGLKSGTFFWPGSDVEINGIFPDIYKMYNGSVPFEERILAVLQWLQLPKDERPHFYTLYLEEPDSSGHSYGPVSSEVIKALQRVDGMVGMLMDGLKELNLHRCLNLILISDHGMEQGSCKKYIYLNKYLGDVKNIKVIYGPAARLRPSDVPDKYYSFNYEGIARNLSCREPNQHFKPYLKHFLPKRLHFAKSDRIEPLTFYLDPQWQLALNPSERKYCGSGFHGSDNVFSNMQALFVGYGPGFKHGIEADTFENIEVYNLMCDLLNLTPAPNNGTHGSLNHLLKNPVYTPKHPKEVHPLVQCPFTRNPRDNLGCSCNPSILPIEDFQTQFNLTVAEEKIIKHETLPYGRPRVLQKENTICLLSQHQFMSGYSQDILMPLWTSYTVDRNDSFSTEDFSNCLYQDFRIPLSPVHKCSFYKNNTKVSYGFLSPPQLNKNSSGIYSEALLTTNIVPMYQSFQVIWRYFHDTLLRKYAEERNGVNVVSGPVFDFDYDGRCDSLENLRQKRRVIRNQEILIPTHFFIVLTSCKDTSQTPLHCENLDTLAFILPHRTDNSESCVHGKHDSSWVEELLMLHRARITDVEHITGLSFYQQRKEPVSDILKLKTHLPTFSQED
pIC50: −log10 of the molar value.
Assay endpoint: pIC50

>  <Molecule>
O=C(Nc1ccc(OS(=O)(=O)c2ccc(-c3ccccc3)cc2)cc1)c1ccccc1

>  <Assay system>
ENPP1 (Homo sapiens)

>  <Assay endpoint>
pIC50

>  <Quantitative result>
5.82

$$$$
>  <Molecule>
O=C(Nc1ccc(OS(=O)(=O)c2cccc3cccnc23)cc1)c1ccccc1 [4q, 4-Benzamidophenyl Quinoline-8-sulfonate]

>  <Assay system>
ENPP1 (Homo sapiens)

>  <Assay endpoint>
pIC50

>  <Quantitative result>
6.43

$$$$
>  <Molecule>
CC1(C(=O)Nc2ccc(OS(=O)(=O)c3ccccc3)cc2)c2ccccc2-c2ccccc21

>  <Assay system>
ENPP1 (Homo sapiens)

>  <Assay endpoint>
pIC50

>  <Quantitative result>
5.07

$$$$
>  <Molecule>
Cc1ccc(C(=O)Nc2ccc(OS(=O)(=O)c3ccc(-c4ccccc4)cc3)cc2)cc1

>  <Assay system>
ENPP1 (Homo sapiens)

>  <Assay endpoint>
pIC50

>  <Quantitative result>
5.76

$$$$
>  <Molecule>
Cc1ccc(C(=O)Nc2ccc(OS(=O)(=O)c3ccc(I)cc3)cc2)cc1

>  <Assay system>
ENPP1 (Homo sapiens)

>  <Assay endpoint>
pIC50

>  <Quantitative result>
4.84

$$$$
>  <Molecule>
Cc1ccc(C(=O)Nc2ccc(OS(=O)(=O)c3ccccc3F)cc2)cc1

>  <Assay system>
ENPP1 (Homo sapiens)

>  <Assay endpoint>
pIC50

>  <Quantitative result>
6.82

$$$$
>  <Molecule>
COc1ccc(S(=O)(=O)Oc2ccc(NC(=O)c3ccccc3)cc2)cc1

>  <Assay system>
ENPP1 (Homo sapiens)

>  <Assay endpoint>
pIC50

>  <Quantitative result>
6.09

$$$$
>  <Molecule>
CC1(C(=O)Nc2ccc(OS(=O)(=O)c3ccc(F)cc3)cc2)c2ccccc2-c2ccccc21

>  <Assay system>
ENPP1 (Homo sapiens)

>  <Assay endpoint>
pIC50

>  <Quantitative result>
6.30

$$$$
>  <Molecule>
CCCCc1ccc(S(=O)(=O)Oc2ccc(NC(=O)c3ccc(C)cc3)cc2)cc1

>  <Assay system>
ENPP1 (Homo sapiens)

>  <Assay endpoint>
pIC50

>  <Quantitative result>
6.64

$$$$
>  <Molecule>
COc1ccc(S(=O)(=O)Oc2ccc(NC(=O)c3ccc(C)cc3)cc2)cc1

>  <Assay system>
ENPP1 (Homo sapiens)

>  <Assay endpoint>
pIC50

>  <Quantitative result>
6.74

$$$$
>  <Molecule>
Cc1ccc(C(=O)Nc2ccc(OS(=O)(=O)Cc3ccccc3)cc2)cc1

>  <Assay system>
ENPP1 (Homo sapiens)

>  <Assay endpoint>
pIC50

>  <Quantitative result>
6.89

$$$$
>  <Molecule>
CC1(C(=O)Nc2ccc(OS(=O)(=O)c3ccccc3F)cc2)c2ccccc2-c2ccccc21

>  <Assay system>
ENPP1 (Homo sapiens)

>  <Assay endpoint>
pIC50

>  <Quantitative result>
6.09

$$$$
>  <Molecule>
Cc1ccc(C(=O)Nc2ccc(OS(=O)(=O)c3ccc(F)cc3)cc2)cc1

>  <Assay system>
ENPP1 (Homo sapiens)

>  <Assay endpoint>
pIC50

>  <Quantitative result>
5.12

$$$$
>  <Molecule>
O=C(Nc1ccc(OS(=O)(=O)Cc2ccccc2)cc1)c1ccccc1 [4n, 4-Benzamidophenyl Phenylmethanesulfonate]

>  <Assay system>
ENPP1 (Homo sapiens)

>  <Assay endpoint>
pIC50

>  <Quantitative result>
5.40

$$$$
>  <Molecule>
CC1(C(=O)Nc2ccc(OS(=O)(=O)C(F)(F)F)cc2)c2ccccc2-c2ccccc21

>  <Assay system>
ENPP1 (Homo sapiens)

>  <Assay endpoint>
pIC50

>  <Quantitative result>
6.05

$$$$
>  <Molecule>
Cc1ccc(S(=O)(=O)Oc2ccc(NC(=O)C3(C)c4ccccc4-c4ccccc43)cc2)cc1

>  <Assay system>
ENPP1 (Homo sapiens)

>  <Assay endpoint>
pIC50

>  <Quantitative result>
4.72

$$$$
>  <Molecule>
O=C(Nc1ccc(OS(=O)(=O)c2ccc(I)cc2)cc1)c1ccccc1 [4r, 4-Benzamidophenyl 4-Iodobenzenesulfonate]

>  <Assay system>
ENPP1 (Homo sapiens)

>  <Assay endpoint>
pIC50

>  <Quantitative result>
5.70

$$$$

---

molecular target: ENPP3 (Homo sapiens, UniProt O14638); experiment: ENPP3 enzyme inhibition assay; format: biochemical; details: read-out: ENPP3 % inhibition ± SD
Sequence (O14638 whole entry): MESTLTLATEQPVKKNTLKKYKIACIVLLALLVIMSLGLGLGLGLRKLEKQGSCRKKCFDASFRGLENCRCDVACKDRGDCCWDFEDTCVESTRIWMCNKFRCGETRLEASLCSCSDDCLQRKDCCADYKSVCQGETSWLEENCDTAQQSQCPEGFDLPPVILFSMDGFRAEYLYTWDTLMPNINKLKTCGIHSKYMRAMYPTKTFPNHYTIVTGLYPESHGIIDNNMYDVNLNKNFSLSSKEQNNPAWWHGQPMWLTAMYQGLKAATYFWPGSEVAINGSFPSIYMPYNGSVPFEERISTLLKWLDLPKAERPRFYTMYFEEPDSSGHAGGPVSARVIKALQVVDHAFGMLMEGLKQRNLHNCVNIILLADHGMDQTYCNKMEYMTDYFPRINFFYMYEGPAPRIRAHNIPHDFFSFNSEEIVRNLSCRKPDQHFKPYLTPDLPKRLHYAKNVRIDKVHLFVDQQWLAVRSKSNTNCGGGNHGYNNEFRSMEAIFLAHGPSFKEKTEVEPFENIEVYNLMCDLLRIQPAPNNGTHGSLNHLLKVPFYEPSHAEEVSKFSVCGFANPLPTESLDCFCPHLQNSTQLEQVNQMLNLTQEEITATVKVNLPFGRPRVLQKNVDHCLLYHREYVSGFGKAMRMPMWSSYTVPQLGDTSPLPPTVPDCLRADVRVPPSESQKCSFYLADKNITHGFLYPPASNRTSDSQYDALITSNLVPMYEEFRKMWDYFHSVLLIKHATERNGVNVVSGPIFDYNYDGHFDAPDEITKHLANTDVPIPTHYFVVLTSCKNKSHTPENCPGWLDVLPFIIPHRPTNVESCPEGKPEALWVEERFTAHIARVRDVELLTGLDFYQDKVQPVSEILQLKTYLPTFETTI
I would appreciate it if you labelled entries met when inhibition at 100 µM is 30% or higher, otherwise not met.

>  <Compound>
COc1ccc(S(=O)(=O)Oc2ccc(NC(=O)c3ccc(C)cc3)cc2)cc1

>  <Assay system>
ENPP3 (Homo sapiens, UniProt O14638)

>  <Label value>
met

$$$$
>  <Compound>
CC1(C(=O)Nc2ccc(OS(=O)(=O)c3ccccc3F)cc2)c2ccccc2-c2ccccc21

>  <Assay system>
ENPP3 (Homo sapiens, UniProt O14638)

>  <Label value>
not met

$$$$
>  <Compound>
CCCc1ccc(S(=O)(=O)Oc2ccc(NC(=O)c3ccc(C)cc3)cc2)cc1

>  <Assay system>
ENPP3 (Homo sapiens, UniProt O14638)

>  <Label value>
not met

$$$$
>  <Compound>
Cc1ccc(C(=O)Nc2ccc(OS(=O)(=O)c3ccc(-c4ccccc4)cc3)cc2)cc1

>  <Assay system>
ENPP3 (Homo sapiens, UniProt O14638)

>  <Label value>
not met

$$$$
>  <Compound>
Cc1ccc(C(=O)Nc2ccc(OS(=O)(=O)c3ccc(C)cc3)cc2)cc1

>  <Assay system>
ENPP3 (Homo sapiens, UniProt O14638)

>  <Label value>
not met

$$$$
>  <Compound>
O=C(Nc1ccc(OS(=O)(=O)c2cccc3cccnc23)cc1)c1ccccc1 [4q, 4-Benzamidophenyl Quinoline-8-sulfonate]

>  <Assay system>
ENPP3 (Homo sapiens, UniProt O14638)

>  <Label value>
not met

$$$$
>  <Compound>
O=C(Nc1ccc(OS(=O)(=O)c2ccc(-c3ccccc3)cc2)cc1)c1ccccc1

>  <Assay system>
ENPP3 (Homo sapiens, UniProt O14638)

>  <Label value>
met

$$$$
>  <Compound>
Cc1ccc(C(=O)Nc2ccc(OS(=O)(=O)Cc3ccccc3)cc2)cc1

>  <Assay system>
ENPP3 (Homo sapiens, UniProt O14638)

>  <Label value>
met

$$$$
>  <Compound>
CCCCc1ccc(S(=O)(=O)Oc2ccc(NC(=O)c3ccc(C)cc3)cc2)cc1

>  <Assay system>
ENPP3 (Homo sapiens, UniProt O14638)

>  <Label value>
met

$$$$
>  <Compound>
CC1(C(=O)Nc2ccc(OS(=O)(=O)c3ccccc3)cc2)c2ccccc2-c2ccccc21

>  <Assay system>
ENPP3 (Homo sapiens, UniProt O14638)

>  <Label value>
met

$$$$
>  <Compound>
COc1ccc(S(=O)(=O)Oc2ccc(NC(=O)c3ccccc3)cc2)cc1

>  <Assay system>
ENPP3 (Homo sapiens, UniProt O14638)

>  <Label value>
not met

$$$$
